Recorded GFP response, % of DMSO by entry
Assay: modulators of CIT2-GFP expression in yeast, confirmation, S. cerevisiae, GFP fusion, cherry picks, mother/daughter gates (AID 2274)
Conditions: S. cerevisiae CIT2-GFP strain, flow cytometry, 3 h; at 10 µM; stronger effect = higher value
The source made the active and inactive calls.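 The calls were made as follows: active = GFP response above 150% of the DMSO level; inconclusive = fewer than 70 events counted for a yeast strain; inactive = the rest.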
reportedMetric: GFP response, % of DMSO

compound | reportedMetric | dataValue
COc1ccc(/C=N/c2c(-c3ccco3)nc3ccccn23)cc1OC | GFP response, % of DMSO | 101% (inactive)
COCCCN(C(=O)c1ccco1)c1nc(-c2cc(OC)ccc2OC)cs1 | GFP response, % of DMSO | 100% (inactive)
COc1ccc(S(=O)(=O)N2CCC(O)(c3ccc(Cl)cc3)CC2)cc1 | GFP response, % of DMSO | 107% (inactive)
COc1cccc(C(=O)Nc2ccccc2)c1 | GFP response, % of DMSO | 94% (inactive)
CCOC(=O)Cc1csc(NC(=O)CSc2nnc(-c3ccc(C)cc3)o2)n1 | GFP response, % of DMSO | 104% (inactive)
CCC(=O)Oc1oc(-c2ccccc2)nc1C=Nc1ccccc1OC | GFP response, % of DMSO | 90.3% (inactive)
O=C1C(=O)c2ccc(-c3ccccc3)cc2-c2ccccc21 | GFP response, % of DMSO | 107% (inactive)
COc1ccc(N2C(=O)C(Cl)=C(Nc3c(C)n(C)n(-c4ccccc4)c3=O)C2=O)cc1 | GFP response, % of DMSO | 92.1% (inactive)
O=C(CN1CCCC1)Nc1cc(C(F)(F)F)cc(C(F)(F)F)c1 | GFP response, % of DMSO | 98.6% (inactive)
Cc1ccc(NC(=S)NCC23C=CC(O2)C2C(=O)N(c4ccc(C)cc4)C(=O)C23)cc1 (stereo not given) | GFP response, % of DMSO | 100% (inactive)
Cc1nc(Sc2ccc(Br)cc2)c(C#N)c(C)c1[N+](=O)[O-] | GFP response, % of DMSO | 98.8% (inactive)
COc1cccc2c1Oc1ncccc1N(C(=O)CCC(=O)NCc1ccccc1Cl)C2 | GFP response, % of DMSO | 103% (inactive)
CS(=O)(=O)Nc1ccc(C2=NN(S(C)(=O)=O)C(c3ccc4c(c3)OCO4)C2)cc1 (stereo not given) | GFP response, % of DMSO | 103% (inactive)
O=C(OCCOc1ccccc1)c1n[nH]c2ccccc12 | GFP response, % of DMSO | 102% (inactive)
Cc1cc(N2CCCCC2)n2nc(C)c(-c3ccccc3)c2n1 | GFP response, % of DMSO | 97.8% (inactive)

###

Assay: modulators of CIT2-GFP expression in yeast, confirmation, S. cerevisiae, GFP fusion, cherry picks, mother/daughter gates (AID 2274)
Details: S. cerevisiae CIT2-GFP strain, flow cytometry, 3 h; measured here: daughter cell gate; at 10 µM; stronger effect = higher value

compound | uom | GFP response, % of DMSO
CCCCCCNC(=O)c1c(O)c2cccc3c2n(c1=O)CCC3 | % | 97.2
O=C(O)COc1c(-c2ccc(Cl)cc2)oc2ccccc2c1=O | % | 97.2
CCN(CC)CCCN(C(=O)c1ccc(Br)cc1)c1nc(-c2ccc(OC)cc2)cs1 | % | 95.8
Cc1occc1-c1nnc(-c2cc([N+](=O)[O-])cc([N+](=O)[O-])c2)o1 | % | 85.7
Cc1cccn2c(N)c(-c3ccccc3)nc12 | % | 102
CC(Oc1ccc(Cl)cc1)C(=O)NNC(=S)NC(=O)c1ccco1 (stereo unspecified) | % | 88.4

###

Molecular target: Integrin beta-1 (Homo sapiens) + Integrin alpha-4 (Homo sapiens) (UniProt P13612+P05556)
Sequence (P05556 whole entry, looked up): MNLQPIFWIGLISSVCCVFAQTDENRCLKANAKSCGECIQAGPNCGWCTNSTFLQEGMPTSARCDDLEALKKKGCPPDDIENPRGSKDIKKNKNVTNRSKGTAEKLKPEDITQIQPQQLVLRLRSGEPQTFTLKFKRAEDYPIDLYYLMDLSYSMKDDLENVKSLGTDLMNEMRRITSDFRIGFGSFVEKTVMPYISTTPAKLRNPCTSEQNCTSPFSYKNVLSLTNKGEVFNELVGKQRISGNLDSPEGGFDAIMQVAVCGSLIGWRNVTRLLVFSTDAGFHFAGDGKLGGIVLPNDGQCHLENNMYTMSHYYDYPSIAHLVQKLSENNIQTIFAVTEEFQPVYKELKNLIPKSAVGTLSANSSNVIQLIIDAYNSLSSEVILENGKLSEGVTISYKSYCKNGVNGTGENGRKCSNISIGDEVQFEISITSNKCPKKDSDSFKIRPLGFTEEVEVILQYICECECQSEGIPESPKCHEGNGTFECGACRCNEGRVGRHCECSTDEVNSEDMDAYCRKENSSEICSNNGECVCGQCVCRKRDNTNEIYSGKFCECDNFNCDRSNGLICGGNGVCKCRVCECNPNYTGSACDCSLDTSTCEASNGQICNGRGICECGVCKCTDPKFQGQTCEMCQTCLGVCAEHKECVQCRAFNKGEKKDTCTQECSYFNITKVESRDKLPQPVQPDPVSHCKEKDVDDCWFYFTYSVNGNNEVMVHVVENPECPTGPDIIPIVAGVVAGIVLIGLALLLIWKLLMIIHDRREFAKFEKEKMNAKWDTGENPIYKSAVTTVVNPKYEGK
Sequence (P13612 whole entry, looked up): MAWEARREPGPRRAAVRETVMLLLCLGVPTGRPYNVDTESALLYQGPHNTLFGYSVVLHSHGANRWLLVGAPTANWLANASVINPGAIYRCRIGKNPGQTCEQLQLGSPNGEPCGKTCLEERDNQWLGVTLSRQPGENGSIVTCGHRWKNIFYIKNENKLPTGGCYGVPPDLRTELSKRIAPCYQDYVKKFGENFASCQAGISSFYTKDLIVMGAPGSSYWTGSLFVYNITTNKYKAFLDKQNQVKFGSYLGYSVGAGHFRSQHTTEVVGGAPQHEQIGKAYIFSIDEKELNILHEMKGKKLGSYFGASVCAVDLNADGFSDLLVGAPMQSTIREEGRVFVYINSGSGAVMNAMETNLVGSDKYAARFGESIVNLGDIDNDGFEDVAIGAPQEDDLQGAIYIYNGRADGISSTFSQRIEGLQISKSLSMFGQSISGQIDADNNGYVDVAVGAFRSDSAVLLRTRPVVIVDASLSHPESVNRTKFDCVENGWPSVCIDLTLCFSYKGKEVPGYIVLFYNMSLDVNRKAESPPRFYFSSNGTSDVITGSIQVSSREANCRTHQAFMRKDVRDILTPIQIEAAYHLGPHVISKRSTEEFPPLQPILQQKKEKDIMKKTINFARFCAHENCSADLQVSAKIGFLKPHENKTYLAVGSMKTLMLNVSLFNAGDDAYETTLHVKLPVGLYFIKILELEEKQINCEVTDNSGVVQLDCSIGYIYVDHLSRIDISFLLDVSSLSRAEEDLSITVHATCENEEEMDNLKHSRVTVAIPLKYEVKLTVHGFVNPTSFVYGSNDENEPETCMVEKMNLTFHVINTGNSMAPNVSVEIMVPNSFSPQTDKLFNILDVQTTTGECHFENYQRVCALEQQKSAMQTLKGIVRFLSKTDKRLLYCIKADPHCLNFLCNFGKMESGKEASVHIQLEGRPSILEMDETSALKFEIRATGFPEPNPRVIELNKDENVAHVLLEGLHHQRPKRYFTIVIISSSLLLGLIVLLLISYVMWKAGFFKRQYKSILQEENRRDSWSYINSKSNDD
Experiment: inhibition of HUTS-21 binding to VLA-4, pilot screen, VLA-4 allosteric modulator project, U937 cells, HUTS-21 mAb, flow cytometry, validation set (AID 2674);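 also: antibody binding induced by the VLA-4 ligand LDV present at three times its Kd; 0% = LDV ligand with antibody and no compound and 100% = antibody without LDV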
Details: HUTS-21 LIBS mAb binding, at 6.7 µM, stronger effect = higher value, binding induced by LDV ligand
reportedMetric: inhibition (%)

chemicalStructure | dataValue
O=c1ccc2ccccc2o1 | -3.77
COc1ccc(CCNC(=O)c2c(O)c3c([nH]c2=O)CCCC3)cc1 | 3.14
O=C(NCCN1CCCCC1)c1c(O)c2ccccc2[nH]c1=O | -6.68

###

Assay: RPL19A-GFP modulators, yeast TOR pathway, confirmation, cell-based, S. cerevisiae, flow cytometry, cherry picks, mother/daughter gates (AID 2270)
Conditions: S. cerevisiae RPL19A-GFP strain, 3 h, at 10 µM, stronger effect = lower value, 100 = same GFP as DMSO wells

molecule | GFP response vs DMSO, %
CC(=O)Nc1ccc(Nc2cc(C)nc3c(-c4ccc(Cl)cc4)c(C)nn23)cc1 | 94.6
O=C(N/N=C/c1ccccc1Cl)c1ccc(F)cc1 | 98.2
CC(C)c1nnc(SCC(=O)N2CCc3ccccc32)n1C | 102
CCCN1C(=O)c2cccc3c(N4CCCCC4)ccc(c23)C1=O | 98.7
Cc1cc(N)n2ncc(-c3ccccc3)c2n1 | 95.6
CCCCCCc1cc2cc(-c3nnc(-c4ccccc4OC)o3)c(=O)oc2cc1O | 98.7
Nc1nc(SCC(=O)Nc2cc(C(F)(F)F)ccc2N2CCOCC2)n[nH]1 | 99
O=C(COC(=O)c1n[nH]c2ccccc12)c1cc(F)ccc1F | 99.5
Cc1onc(-c2ccccc2)c1C(=O)NC(=S)NNC(=O)c1ccco1 | 101
O=S(=O)(Nc1ccc(Br)cc1)c1cccc2nonc12 | 97.4
Cc1cc(Cl)ccc1N1C(=O)CC(SCCC(=O)O)C1=O (stereo not given) | 96.4
COc1ccc2c(c1)c(C(C)=O)c(C)n2-c1ccccc1OC | 96.5
CC(=O)c1ccc(Sc2ccccn2)c([N+](=O)[O-])c1 | 98.4
CC(=O)Oc1ccc(/C=c2\sc3ncnn3c2=O)cc1 | 100
Cc1ccc(N2C(=O)CC(Sc3ncn[nH]3)C2=O)cc1C (stereo not given) | 106
CCOc1ccccc1-c1noc(CCC(=O)Nc2cccnc2)n1 | 98.4
C=CCOc1ccccc1C(=O)/C=C1/C(=O)Nc2ccccc21 | 101
O=C(Nc1nc(-c2ccccn2)cs1)c1cc2ccccc2o1 | 97.4
O=C(COc1ccccc1)Nc1c2c(nn1-c1ccccc1)CS(=O)C2 (stereo not given) | 97.1
CNC(=O)/C(C#N)=C/c1c(N(Cc2ccccc2)Cc2ccccc2)nc2c(C)cccn2c1=O | 97.2
O=c1cnnc(SCc2ccc([N+](=O)[O-])cc2)[nH]1 | 97.4
COc1cc(OC)cc(-c2nc(-c3ccccc3OC)no2)c1 | 97.8
O=C(NCc1ccncc1)C12CC3CC(CC(Cl)(C3)C1)C2 | 96.2
Cc1ccc2[nH]c3c(=O)n(CC(=O)N4CCN(C)CC4)ncc3c2c1 | 95
NC1=NC(=O)C(CC(=O)c2ccc(Cl)cc2)S1 (stereo not given) | 99.9
O=C(O)CSC1CC(=O)N(c2ccc(Cl)cc2)C1=O (stereo not given) | 93.1
Cc1nn2c(NCc3ccccn3)c3c(nc2c1-c1ccccc1)CCC3 | 106
COc1ccc(NC(=S)NCCCCCC(=O)C[N+](=O)[O-])cc1 | 96
O=C1/C(=C\c2ccccn2)SC(=S)N1Nc1ncc(C(F)(F)F)cc1Cl | 99.1
CC(C)c1nnc(NC(=O)c2nc(S(=O)(=O)Cc3ccc(F)cc3)ncc2Cl)s1 | 95.8
N#C/C(=C\c1ccc(N2CCOCC2)o1)c1ccccc1 | 98.2
COc1cc(NC(=O)c2ccccc2F)ccc1NC(=O)c1cc2ccccc2o1 | 87.2
COc1ccc(-c2csc(N(CC(C)C)C(=O)c3ccco3)n2)cc1 | 98.2
O=C(CS(=O)c1ccccc1[N+](=O)[O-])Oc1ccc(Br)cc1 (stereo not given) | 101
Oc1c(Br)cc(Br)cc1C=Nc1ccc2[nH]ncc2c1 | 99.5

###

Recorded GFP response vs DMSO by entry
Assay: modulators of MEP2-GFP levels in yeast, confirmation, S. cerevisiae, flow cytometry GFP, cherry picks (AID 2272);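 also: ratio of well signal to plate DMSO mean so 100% equals DMSO level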
Details: S. cerevisiae MEP2-GFP strain, 3 h, at 10 µM, stronger effect = higher value
reportedMetric: GFP response vs DMSO (%)

molecule | dataValue
COc1cccc2c1Oc1ncccc1N(C(=O)CCC(=O)NCc1ccc(F)cc1)C2 | 102
COc1ccc(-c2noc(-c3cccc(Cl)c3)n2)cc1OC | 102
CCCn1c(=O)c(C(=O)NCc2ccc(OC)c(OC)c2)c(O)c2ccccc21 | 107
N#C/C(=C\c1c(N2CCC(C(N)=O)CC2)nc2ccccn2c1=O)C(=O)NCc1ccco1 | 102
CCCc1[nH]nc2c1C(c1ccccc1OC)C(C#N)=C(N)O2 (stereo not given) | 120
COC(=O)Cn1nc(-c2ccccc2)c2cc(Cl)ccc21 | 109
CCOC(=O)C1(Cc2ccccc2Cl)CCN(C(=O)CCn2ccnc2C)CC1 | 99.5
O=C1c2ccsc2SCCN1Cc1c(F)cccc1Cl | 96.8
O=C(Oc1oc(-c2ccco2)nc1C=Nc1ccccc1)c1ccco1 | 107
Cc1cccn2c(=O)c(/C=C(\C#N)C(=O)NC3CCS(=O)(=O)C3)c(N3CCC(C(N)=O)CC3)nc12 (stereo not given) | 99
Cc1ccc(N2C(=O)C3C4C=CC(CNC(=S)N5CCN(c6ccccc6)CC5)(O4)C3C2=O)cc1 (stereo not given) | 100
CCCc1[nH]nc2c1C(c1ccc(OC(=O)c3ccco3)cc1)C(C#N)=C(N)O2 (stereo not given) | 124
CCn1c(=O)c(C(=O)Nc2nc3ccccc3[nH]2)c(O)c2ccccc21 | 159
Oc1cccc(/C=N/c2c(-c3ccco3)nc3ccccn23)c1 | 97.5
Cc1ccc(NC(=O)c2nc(S(=O)(=O)Cc3ccccc3C)ncc2Cl)cc1C | 103
O=C(/C=C/c1ccccc1[N+](=O)[O-])c1ccccc1Br | 101
COC(=O)c1ccc(/C=N\NC(=O)c2ccc(C)cc2Cl)cc1 | 102
O=[N+]([O-])c1ccc(Cl)cc1Sc1ccccn1 | 112
O=C(Nc1ccccc1C(F)(F)F)c1cc(-c2ccc(O)cc2)on1 | 102
CC(C)c1nnc(-c2ccc(Cl)cc2)c(N(C)C)n1 | 103
